- Target system: PARP1 WT (UniProt P09874 1-1014)
- Sequence (P09874 whole entry): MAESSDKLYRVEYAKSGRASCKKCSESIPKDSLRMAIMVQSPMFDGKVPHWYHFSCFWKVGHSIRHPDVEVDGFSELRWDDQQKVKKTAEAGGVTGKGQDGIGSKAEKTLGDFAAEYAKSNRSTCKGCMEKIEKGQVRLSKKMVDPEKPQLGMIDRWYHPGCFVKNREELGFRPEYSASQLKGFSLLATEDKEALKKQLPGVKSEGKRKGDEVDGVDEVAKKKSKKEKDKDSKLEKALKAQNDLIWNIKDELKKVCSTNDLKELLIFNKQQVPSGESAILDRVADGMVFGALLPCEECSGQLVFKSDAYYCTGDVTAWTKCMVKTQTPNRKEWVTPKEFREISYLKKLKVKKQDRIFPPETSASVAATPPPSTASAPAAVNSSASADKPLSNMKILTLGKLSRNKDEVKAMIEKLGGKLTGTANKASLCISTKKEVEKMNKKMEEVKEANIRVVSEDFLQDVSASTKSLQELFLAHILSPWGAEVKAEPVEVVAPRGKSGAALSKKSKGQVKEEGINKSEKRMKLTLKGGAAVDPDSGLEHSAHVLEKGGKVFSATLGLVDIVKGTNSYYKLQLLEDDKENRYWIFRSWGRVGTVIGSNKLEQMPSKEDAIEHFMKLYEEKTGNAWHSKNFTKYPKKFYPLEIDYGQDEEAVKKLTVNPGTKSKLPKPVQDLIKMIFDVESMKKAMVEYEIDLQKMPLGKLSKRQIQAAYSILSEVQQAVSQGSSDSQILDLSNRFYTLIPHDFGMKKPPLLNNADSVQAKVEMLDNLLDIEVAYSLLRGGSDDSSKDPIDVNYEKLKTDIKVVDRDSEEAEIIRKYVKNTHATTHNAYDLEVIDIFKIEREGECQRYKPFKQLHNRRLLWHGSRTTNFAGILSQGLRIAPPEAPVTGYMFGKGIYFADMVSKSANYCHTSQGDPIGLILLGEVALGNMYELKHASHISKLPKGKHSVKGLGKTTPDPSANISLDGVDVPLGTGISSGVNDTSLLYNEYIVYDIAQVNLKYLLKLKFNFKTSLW
- Method summary: fluorescence polarization
Measurement name: Kd (nM)
Return type: number; implicit unit nM.

Param item = 18-bp DNA duplex (dsDNA) DNA 1: GGGTTGCGGCCGCTTGGG DNA 2: CCCAAGCGGCCGCAACCC ; retrieve measured Kd.
61.9

// data source = paper PMC11070930
